Can you tell me DC50 for the items I'm about to list?
molecular target: IRAK4 (Homo sapiens, UniProt Q9NWZ3); construct: endogenous in cells; host or cells: OCI-LY10; assay: IRAK4 MSD Degradation in OCI-LY10; format: cell-based; conditions: OCI-LY10 cells, Meso Scale Discovery, incubated 4 to 24 hours

Example results:
IN: Checklist item: DC50 tested on IRAK4 (Homo sapiens, UniProt Q9NWZ3), entry Cn1c(=O)n(C2CCC(=O)NC2=O)c2ccc(Cl)c(C3CCN(C[C@H]4C[C@H](n5cc6cc(NC(=O)c7cccc(C(F)(F)F)n7)ccc6n5)C4)CC3)c21 (stereo partly drawn) [I-150] , value?
OUT: 100 to 200 nM

IN: Please do the same for COc1cc2nc([C@H]3CC[C@H](CN(C)CCCNc4cccc5c4C(=O)N(C4CCC(=O)NC4=O)C5=O)CC3)sc2cc1NC(=O)c1cncc(F)c1 (stereo partly drawn) [I-482] as well.
OUT: > 200 nM

Others:
IN: I'm curious: which DC50 was measured for Cn1c(=O)n(C2CCC(=O)NC2=O)c2cccc(C3C[C@H]4CC[C@@H](C3)N4C[C@H]3CC[C@H](n4cc5cc(NC(=O)c6cccc(C(F)(F)F)n6)ccc5n4)CC3)c21 (single isomer, unassigned) [I-250] tested on IRAK4 (Homo sapiens, UniProt Q9NWZ3)?
OUT: 10 to 50 nM

====

Target: IRAK4 (Homo sapiens)
Construct: endogenous in cells; host or cells: OCI-LY10
Sequence (Q9NWZ3 1-460): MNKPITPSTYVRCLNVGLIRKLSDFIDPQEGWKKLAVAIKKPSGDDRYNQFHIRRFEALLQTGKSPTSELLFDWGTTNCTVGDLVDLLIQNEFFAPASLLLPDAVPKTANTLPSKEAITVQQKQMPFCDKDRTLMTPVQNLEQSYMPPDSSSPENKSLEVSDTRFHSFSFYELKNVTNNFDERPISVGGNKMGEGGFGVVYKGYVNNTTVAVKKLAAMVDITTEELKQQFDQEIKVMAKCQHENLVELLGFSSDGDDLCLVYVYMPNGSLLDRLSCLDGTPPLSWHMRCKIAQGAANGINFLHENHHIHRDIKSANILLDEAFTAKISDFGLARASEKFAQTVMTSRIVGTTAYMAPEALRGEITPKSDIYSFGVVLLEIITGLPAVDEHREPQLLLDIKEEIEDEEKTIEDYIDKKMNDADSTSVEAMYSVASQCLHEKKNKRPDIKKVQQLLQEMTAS
Experiment: IRAK4 MSD Degradation in OCI-LY10
Format: cell-based
Conditions: OCI-LY10 cells, Meso Scale Discovery, incubated 4 to 24 hours
I'd be grateful if you could share measured DC50 for these entries.

IN: Entry CCn1c(=O)n(C2CCC(=O)NC2=O)c2cccc(N3CCN(C[C@H]4CC[C@H](n5cc6cc(NC(=O)c7cccc(C(F)(F)F)n7)c(OC)cc6n5)CC4)CC3)c21 (stereo partly shown) : reported DC50 = ?
OUT: < 10 nM

IN: Moving on to the next compound: COc1cc2nn([C@H]3CC[C@H](CN4CCC(c5c(C)ccc6c5n(C)c(=O)n6C5CCC(=O)NC5=O)CC4)CC3)cc2cc1NC(=O)c1cncc(C(F)(F)F)c1 (stereo partly shown)
OUT: < 10 nM

IN: // repeat for Cn1c(=O)n(C2CCC(=O)NC2=O)c2ccc(F)c(C3CCN(C[C@H]4CC[C@H](n5cc6cc(NC(=O)c7cccc(C(F)(F)F)n7)ncc6n5)CC4)CC3)c21 (stereo partly shown) and report
OUT: < 10 nM

IN: And the next one, COc1cc2nn([C@H]3CC[C@H](CN4CC[C@@H](c5cccc6c(N7CCC(=O)NC7=O)cncc56)C4)CC3)cc2cc1NC(=O)c1cccc(C(F)(F)F)n1 ?
OUT: 10 to 50 nM

IN: Also check Cc1cc2nn([C@H]3CC[C@H](CN4CC5CC(C4)N5c4cccc5c4n(C)c(=O)n5C4CCC(=O)NC4=O)CC3)cc2cc1NC(=O)c1cccc(C(F)(F)F)n1 (stereo partly shown)
OUT: 10 to 50 nM

IN: Lookup COc1cc2nn([C@H]3CC[C@H](CN4CCC(c5c(C)ccc6c5n(C)c(=O)n6C5CCC(=O)NC5=O)CC4)CC3)cc2cc1NC(=O)c1cncc(C#N)c1 (stereo partly shown)
OUT: < 10 nM

IN: Okay, and Cn1c(=O)n(C2CCC(=O)NC2=O)c2cccc(C3CCN(C[C@H]4CC[C@H](N5Cc6cc(NC(=O)c7cccc(C(F)(F)F)n7)c(N7C[C@@H]8C[C@H]7CO8)cc6C5=O)CC4)CC3)c21 (stereo partly shown) ?
OUT: < 10 nM

IN: Next record, please: CC(C)(O)c1cc2nc([C@H]3CC[C@H](CN4CCO[C@H](CCCNc5cccc6c5C(=O)N(C5CCC(=O)NC5=O)C6=O)C4)CC3)sc2cc1NC(=O)c1cncc(C#N)c1 (stereo partly shown)
OUT: > 200 nM

Items follow; give DC50 for each.
1. COc1cc2nn([C@H]3CC[C@H](CN4CCN(c5cccc6c(N7CCC(=O)NC7=O)cncc56)CC4)CC3)cc2cc1NC(=O)c1cncc(C#N)c1
2. Cc1cccc(C(=O)Nc2cc3sc([C@H]4CC[C@H](CN5CCO[C@@H](CCCNc6cccc7c6C(=O)N(C6CCC(=O)NC6=O)C7=O)C5)CC4)nc3cc2C(C)(C)O)n1 (stereo partly shown)
3. CC(C)Nc1cc(-n2ccc3cc(C(F)(F)F)cnc32)ncc1C(=O)N[C@H]1CC[C@H](CN2CCC(c3cccc4c3n(C)c(=O)n4C3CCC(=O)NC3=O)CC2)CC1 (stereo partly shown)
4. CN(CCCO[C@H]1C[C@H](Nc2cccc3c2C(=O)N(C2CCC(=O)NC2=O)C3=O)C1)C[C@H]1CC[C@H](n2cc3cc(NC(=O)c4cccc(C(F)(F)F)n4)ccc3n2)CC1 (stereo partly shown)
5. CC(C)Nc1cc(-n2ccc3cc(C#N)cnc32)ncc1C(=O)N[C@H]1CC[C@H](CN2CCC(c3cccc4c3n(C)c(=O)n4C3CCC(=O)NC3=O)CC2)CC1 (stereo partly shown)
6. CC(C)(O)c1cc2nn([C@H]3CC[C@H](CN4C5CC4CN(c4cccc6c(N7CCC(=O)NC7=O)cncc46)C5)CC3)cc2cc1NC(=O)c1cccc(C(F)(F)F)n1
7. Cc1cccc(C(=O)Nc2cc3sc([C@H]4CC[C@H](C(=O)N5CC6(CCN(CCNc7cccc8c7C(=O)N(C7CCC(=O)NC7=O)C8=O)CC6)C5)CC4)nc3cc2C(C)(C)O)n1 (stereo partly shown)

OUT:
1: 10 to 50 nM; 2: 50 to 100 nM; 3: > 200 nM; 4: > 200 nM; 5: < 10 nM; 6: < 10 nM; 7: 10 to 50 nM

Below are some compounds; for each one, tell me its DC50.
1. Cc1cccc(C(=O)Nc2cc3sc([C@H]4CC[C@H](CN5C[C@H]6C[C@@H]5CN6CCCNc5cccc6c5C(=O)N(C5CCC(=O)NC5=O)C6=O)CC4)nc3cc2C(C)(C)O)n1 (stereo partly shown)
2. CC(C)(O)c1cc2nc([C@H]3CC[C@H](CN4CC5(CC(CCNc6cccc7c6C(=O)N(C6CCC(=O)NC6=O)C7=O)C5)C4)CC3)sc2cc1NC(=O)c1cncc(F)c1 (stereo partly shown)
3. COc1cc2nn([C@H]3CC[C@H](CN4CC[C@@H](c5cccc6c5n(C)c(=O)n6C5CCC(=O)NC5=O)C4)CC3)cc2cc1NC(=O)c1cccc(C(F)(F)F)n1 (stereo partly shown)

OUT:
100 to 200 nM
10 to 50 nM
< 10 nM
